Tested on: RPMI-8226
protocol.description: NCI tumour cell line growth inhibition, 48 h
Calls of active or inactive are those of the source. Rule as the data show it: active = GI50 up to about 1.1 µM and inactive = higher.
measurement.kind: GI50

> print(dat)
                                    compound               result
 1  O=C(/C=C/c1ccccc1)c1ccc(NCc2nc3ccccc3[nH]2)cc1   2.29 µM (inactive)
 2  Cc1cc(O)nc(NN2C(Cl)C(=O)C2c2ccco2)n1 (stereo not drawn)   16.3 µM (inactive)
 3  NC(Cc1ccc(S(=O)(=O)O)cc1)C(=O)NC(Cc1ccc(S(=O)(=O)O)cc1)C(=O)O (stereo not drawn)  > 100 µM (inactive)
 4  COC(=O)CCCC(=O)NC1=C(Nc2ccccc2)C(=O)c2ccccc2C1=O   17.6 µM (inactive)
 5  C1COCCOP2(N3CC3)=NP(N3CC3)(=NP(N3CC3)(N3CC3)=N2)OCCOCCO1 (stereo not drawn)  > 100 µM (inactive)
 6  COc1cc2c(cc1OC)C13CCN4CC5=CCOC(CC(=O)O)C(C5CC41)C3N2 (stereo not drawn)  > 100 µM (inactive)
 7  N=c1oc2ccccc2cc1C(=O)NC12CC3CC(CC(C3)C1)C2   5.71 µM (inactive)
 8              O=C(C#Cc1cnc(O)nc1O)c1ccccc1   7.76 µM (inactive)
 9  CC(C)(C)C(=O)OCC1CCC[N+]2(C)CCCCC12 (stereo not drawn)  > 100 µM (inactive)
10  C[N+](C)(C)CC1CCCCC1O (stereo not drawn)  > 100 µM (inactive)
11             O=C(O)c1c[nH]c2c(=O)[nH]cnc12  > 100 µM (inactive)
12  Cc1cc(NCC2CC/C(=C\C=C\c3ccccc3)C2=O)no1 (stereo not drawn)   19.5 µM (inactive)
13           N#Cc1c(Cl)cc(C#N)n2c1nc1ccccc12   4.14 µM (inactive)
14             O=c1[nH]c(=S)[nH]cc1CN1CCOCC1  > 100 µM (inactive)
15                   COC(=O)C1=CCS(=O)(=O)C1  > 100 µM (inactive)
16  O=C(OCc1nc2ccc(Br)cc2c(=O)n1-c1ccccc1)c1ccccc1O   29.4 µM (inactive)
17                         O=C(O)c1nn[nH]c1S  > 100 µM (inactive)
18  Cc1cc(C)c(-n2c(-c3ccc(Br)cc3)cs/c2=N\N=C2C=C(C(C)(C)C)C(=O)C(C(C)(C)C)=C2)c(C)c1  > 100 µM (inactive)
19  COc1ccc(OC)c([N+](=O)[O-])c1-c1nc2sccn2c1/C=N/N=C(N)N   33.5 µM (inactive)
20  Clc1cc(OC2C3CC4CC(C3)CC2C4)nc(Cl)n1 (stereo not drawn)     21 µM (inactive)
21  SC1=Nc2ccccc2-c2nc(-c3cccc(Cl)c3)cc(-c3ccccc3)c2C1    3.2 µM (inactive)
22  O=C1C[S+]([O-])C23c4cc5ccccc5n4CCC2CCCN13 (stereo not drawn)  > 100 µM (inactive)
23  CC(=O)NNc1nc(C)c(C(=O)/C=C/C=C/c2ccccc2)s1     76 µM (inactive)

Ref: ChEMBL document CHEMBL1201862
